These entries and their values trace back to patent US20020026053A1.

System: FLK-1 receptor
Assay: FLK-1 Assay (cellular/catalytic ELISA, VEGF-stimulated phosphotyrosine)
Type: cell-based
Set-up: concentration or dose not given beside the values
metric: Flk Kinase % Inhibition (P.110) (%)

INSERT INTO assay_data (chemsmiles, metric, reported) VALUES
  ('Cc1cccc(C=C2C(=O)Nc3ccc(I)cc32)c1', 'Flk Kinase % Inhibition (P.110)', 3.0),
  ('CNS(=O)(=O)c1ccc2c(c1)C(=Cc1ccc(Cl)cc1Cl)C(=O)N2', 'Flk Kinase % Inhibition (P.110)', 15.1),
  ('COc1cc(O)ccc1C=C1C(=O)Nc2c(Br)cc(Br)c(C)c21', 'Flk Kinase % Inhibition (P.110)', 1.8),
  ('O=C1Nc2ccc(S(=O)(=O)Nc3ccc(C(F)(F)F)cc3)cc2C1=Cc1cccc2ccccc12', 'Flk Kinase % Inhibition (P.110)', 29.6),
  ('CNS(=O)(=O)c1ccc2c(c1)C(=Cc1cc(C(F)(F)F)cc(C(F)(F)F)c1)C(=O)N2', 'Flk Kinase % Inhibition (P.110)', 16.2),
  ('O=C1Nc2ccc(S(=O)(=O)N3CCOCC3)cc2C1=Cc1cc(Br)cc(Br)c1O', 'Flk Kinase % Inhibition (P.110)', 6.6),
  ('Cc1c(Br)cc(Br)c2c1C(=C1C(=O)Nc3ccccc31)C(=O)N2', 'Flk Kinase % Inhibition (P.110)', 1.5),
  ('Cc1c(Br)cc(Br)c2c1C(=Cc1cc(Cl)ccc1O)C(=O)N2', 'Flk Kinase % Inhibition (P.110)', '−1.3'),
  ('Cc1c(Br)cc(Br)c2c1C(=Cc1cc3ccccc3nc1Cl)C(=O)N2', 'Flk Kinase % Inhibition (P.110)', 9.2),
  ('CCN(CC)c1ccc(C=C2C(=O)Nc3ccc(S(=O)(=O)N4CCOCC4)cc32)c(O)c1', 'Flk Kinase % Inhibition (P.110)', 9.8),
  ('COc1cccc(C=C2C(=O)Nc3c(Br)cc(Br)cc32)c1', 'Flk Kinase % Inhibition (P.110)', '−11.0'),
  ('Cc1c(Br)cc(Br)c2c1C(=Cc1ccc(Cl)cc1Cl)C(=O)N2', 'Flk Kinase % Inhibition (P.110)', 24.0),
  ('O=C1Nc2ccc(S(=O)(=O)N3CCOCC3)cc2C1=Cc1cccc(F)c1', 'Flk Kinase % Inhibition (P.110)', 16.6),
  ('COc1ccc(C=C2C(=O)Nc3c(Br)cc(Br)c(C)c32)c(OC)c1', 'Flk Kinase % Inhibition (P.110)', 3.4),
  ('Cc1c(Br)cc(Br)c2c1C(=Cc1sc3scc(C)c3c1C)C(=O)N2', 'Flk Kinase % Inhibition (P.110)', 8.6),
  ('O=C1Nc2ccc(S(=O)(=O)Nc3ccc(C(F)(F)F)cc3)cc2C1=Cc1cc(F)cc(F)c1', 'Flk Kinase % Inhibition (P.110)', 12.2),
  ('Cc1c(Br)cc(Br)c2c1C(=Cc1ccncc1)C(=O)N2', 'Flk Kinase % Inhibition (P.110)', '−2.7'),
  ('Cc1c(Br)cc(Br)c2c1C(=Cc1csc([N+](=O)[O-])c1)C(=O)N2', 'Flk Kinase % Inhibition (P.110)', 3.3);
